- measuredTarget: T1, NPNA4 peptide (Plasmodium falciparum (isolate 3D7)., not fully specified)
- T1 construct: source: synthetic peptide (InnoPep Inc, purity >=97%)
- T1 chain: NPNANPNANPNANPNA
- testMethodNotes: BLI
- conditionSet: both partners purified
pKd: −log10 of the molar value. Ends that are not written are not given here.
valueKind: pKd

{"columns": ["binder", "valueKind", "dataValue"],
 "data": [
  ["356R Fab (Fab, V domains shown, also called Fab356R; germline-reverted 356; source: ExpiCHO cells, purified (mAb Select PrismA or Capture Select, SEC)) VH: QVQLVESGGGVVQPGRSLRLSCAASGFTFSSYGMHWVRQTPGKGLEWVAVIWHDGSNKFYADSVKGRFTISRDNSKNMIYLQMNSLRVEDTAIYYCARDSLFYDHDNSGYYGYWGQGTLVTVSS VL: EIVMTQSPATVSVSPGERATLSCRASQSVTSKLAWYQQKPGQAPRLLIYGASTRATGIPARFSGSGSGTEFTLTISSLQSEDFAVYFCQQYNNGFTFGPGTKVDFK", "pKd", 7.19],
  ["356 Fab (Fab, V domains shown, source: ExpiCHO cells, purified (mAb Select PrismA or Capture Select, SEC)) VH: QVQLVESGGGVVQPGRSLRLSCAASGFTFRNFGMHWVRQTPGKGLEWVAVIWHDGSNKFYADSVEGRFTISRDNSKNMIYLQMNSLRVEDTAIYYCARDSLFYDHDNSGYYGYWGQGTLVTVSS VL: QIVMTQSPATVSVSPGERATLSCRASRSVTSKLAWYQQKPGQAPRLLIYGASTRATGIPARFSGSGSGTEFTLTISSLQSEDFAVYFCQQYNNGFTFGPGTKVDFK", "pKd", 6.91],
  ["311R Fab (Fab, V domains shown, also called Fab311R; germline-reverted 311; source: ExpiCHO cells, purified (mAb Select PrismA or Capture Select, SEC)) VH: QVQLVESGGGVVPPGRSLRLSCATSGFTFSSYGMHWVRQAPGKGLEWVAIIWYDGSNKFYAASVKGRFTISRDNSKNTLYLQMNSLRVEDTAVYYCARAAYYDTSGYGDYWGQGTLVTVSS VL: QSVLTQPPSVSGAPGQTVTISCTGGSSNIGAGYDVHWYQQLPGTAPKLLIYGNINRPSGVPDRFSGSKSGTSASLAITGLQAEDEADYYCQSYDSSLSGSWVFGGGTKLTVL", "pKd", 6.88]
]}
